Attribute: Fold change
System: Human immunodeficiency virus 1
Assay: Resistance to HIV1 with protease 46I, 54V and I84V mutation in HEK 293 cells relative to similar background
Assay type: functional, HEK293
Enter the number alone.

// known answers, use as guide
# Molecule, Fold change
records = [
    ("CC(C)(C)NC(=O)[C@@H]1CN(Cc2cccnc2)CCN1C[C@@H](O)C[C@@H](Cc1ccccc1)C(=O)N[C@H]1c2ccccc2C[C@H]1O.O", 19),
    ("CC(C)CN(C[C@@H](O)[C@H](Cc1ccccc1)NC(=O)O[C@H]1CCOC1)S(=O)(=O)c1ccc(N)cc1", 36),
    ("CC(C)c1nc(CN(C)C(=O)N[C@H](C(=O)N[C@@H](Cc2ccccc2)C[C@H](O)[C@H](Cc2ccccc2)NC(=O)OCc2cncs2)C(C)C)cs1 [RITONAVIR]", 49),
    ("Cc1cccc(C)c1OCC(=O)N[C@@H](Cc1ccccc1)[C@@H](O)C[C@H](Cc1ccccc1)NC(=O)[C@H](C(C)C)N1CCCNC1=O [LOPINAVIR]", 80),
    ("CC(C)(C)NC(=O)[C@@H]1C[C@@H]2CCCC[C@@H]2CN1C[C@@H](O)[C@H](Cc1ccccc1)NC(=O)[C@H](CC(N)=O)NC(=O)c1ccc2ccccc2n1", 20),
]

Alright, here's another molecule for you.
Request - read-out Fold change | tested on Human immunodeficiency virus 1 | molecule `Cc1c(O)cccc1C(=O)N[C@@H](CSc1ccccc1)[C@H](O)CN1C[C@H]2CCCC[C@H]2C[C@H]1C(=O)NC(C)(C)C`
16
